Test system: grafted B16 F0 murine melanoma tumour
experimentalProtocol: Biodistribution of the ^125I-labelled molecules in the melanoma-bearing mouse (autoradiography of whole-body sections)
studyConditions: GB; 6 H
Where a name gives a salt, the structure may show the parent alone.
quantityMeasured: Biodistribution, Mean, GB

>>> print(df.to_string())
                                   compound           quantitymeasured  number
0  CCN(CC)CCNC(=O)c1cccc2cc3cc(I)ccc3nc12 [compound 111, dihydrochloride]  Biodistribution, Mean, GB   12.79
1    CCN(CC)CCNC(=O)c1ccc2cncc(I)c2n1.Cl.Cl  Biodistribution, Mean, GB   28.67
2  CCN(CC)CCNC(=O)c1cccc2c(Nc3ccc(NS(C)(=O)=O)cc3OC)c3cc(I)ccc3nc12 [compound 129, dihydrochloride]  Biodistribution, Mean, GB  166.43
3    CCN(CC)CCNC(=O)c1cnc2cc(I)ccc2n1.Cl.Cl  Biodistribution, Mean, GB   33.38
4  CCCN(CCC)CCCCNC(=O)c1ccc2cc(I)ccc2n1 [compound 49, dihydrochloride]  Biodistribution, Mean, GB   55.80
5  CCN(CC)CCNC(=O)c1cccc2cc3cccc(I)c3nc12 [compound 102, dihydrochloride]  Biodistribution, Mean, GB  281.20

Data origin, for the record: patent US20100061928A1
